Assay: toxicity (LD50) in mice, I.V. and P.O.
Settings: mouse, in vivo, iv, I.V.

{"columns": ["compound", "LD50"],
 "data": [
  ["CCCCCc1cc(O)c(C(=O)O)c(O)c1 [compound I, 4-n-pentyl-6-hydroxy salicylic acid]", "50 to 100 mg/kg"]
]}

---

Assay: toxicity (LD50) in mice, I.V. and P.O.
Settings: mouse, in vivo, po, P.O.
quantity.name: LD50

{"columns": ["molecule", "quantity.name", "val"],
 "data": [
  ["CCCCCc1cc(O)c(C(=O)O)c(O)c1 [compound I, 4-n-pentyl-6-hydroxy salicylic acid]", "LD50", "1000 to 1500 mg/kg"]
]}
